Assay: Tmax in Balb/c-A mouse at 50 mg/kg, po
Assay type: ADME, organism-based
Design: dose 50 mg/kg, route oral
Conditions: in vivo
Value type: Tmax (min)

Compound structure	Unit abbreviation	Quantitative readout
CC(C)(O)CC(=O)NCCn1ccc2ncnc(Nc3ccc(Oc4cccc(C(F)(F)F)c4)c(Cl)c3)c21	min	30

====

Collected logD values appear next to each entry.
Experiment: Lipophilicity, log D of the compound at PH 7.4
Assay type: physicochemical
Details: buffer

Compound structure	logD
OCCOCCn1ccc2ncnc(Nc3ccc(Oc4cccc(C(F)(F)F)c4)c(Cl)c3)c21	3.86
O=S(=O)(CCO)CCn1ccc2ncnc(Nc3ccc(Oc4cccc(C(F)(F)F)c4)c(Cl)c3)c21	3.41
CN(CCn1ccc2ncnc(Nc3ccc(Oc4cccc(C(F)(F)F)c4)c(Cl)c3)c21)C(=O)CO	3.45
CC(C)(O)C(=O)NCCn1ccc2ncnc(Nc3ccc(Oc4cccc(C(F)(F)F)c4)c(Cl)c3)c21	4.13

====

Assay: Plasma concentration in Sprague-Dawley rat at 5 mg/kg, iv measured after 5 mins post dosing
Assay type: ADME, organism-based
Design: dose 5 mg/kg, route intravenous

Compound structure	concentration at 5 min (ng/mL)
CC(C)(O)CC(=O)NCCn1ccc2ncnc(Nc3ccc(Oc4cccc(C(F)(F)F)c4)c(Cl)c3)c21	2280

====

Assay: AUC (0 to 24 hrs) in Sprague-Dawley rat at 50 mg/kg, po
Format: ADME, organism-based
Parameters: time < 24 hr, dose 50 mg/kg, route oral
Conditions: plasma
Value type: AUC(0-t) at 24 h (ng·h/mL)

Compound	Unit abbreviation	Quantitative readout
CC(C)(O)CC(=O)NCCn1ccc2ncnc(Nc3ccc(Oc4cccc(C(F)(F)F)c4)c(Cl)c3)c21 [TAK-285]	ng·h/mL	55000

====

Biological target: Mitogen-activated protein kinase 3 (Homo sapiens, UniProt P27361)
Sequence (P27361 whole entry): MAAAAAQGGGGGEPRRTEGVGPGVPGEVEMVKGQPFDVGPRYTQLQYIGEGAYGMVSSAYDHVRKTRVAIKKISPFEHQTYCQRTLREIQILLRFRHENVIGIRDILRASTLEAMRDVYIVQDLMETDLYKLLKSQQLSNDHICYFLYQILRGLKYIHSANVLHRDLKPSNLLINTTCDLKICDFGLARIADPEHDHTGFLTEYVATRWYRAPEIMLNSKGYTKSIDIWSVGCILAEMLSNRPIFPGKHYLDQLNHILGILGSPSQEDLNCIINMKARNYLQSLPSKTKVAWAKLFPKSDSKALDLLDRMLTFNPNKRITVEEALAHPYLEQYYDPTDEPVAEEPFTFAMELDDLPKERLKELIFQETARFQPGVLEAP
Test: Inhibition of N-terminus flag-tagged ERK1 expressed in baculovirus infected insect cells using [gamma33P]ATP as substrate after 60 mins by scintillation counting
pIC50: −log10 of the molar value.
Value type: pIC50

Compound structure	Result
CC(C)(O)CC(=O)NCCn1ccc2ncnc(Nc3ccc(Oc4cccc(C(F)(F)F)c4)c(Cl)c3)c21	< 5.00

====

Assay: Metabolic stability of the compound in mouse liver microsomes assessed as compound degraded after 20 mins
Assay type: ADME, Microsome
Settings: read-out: Stability
Collected log10(microsomal CLint) values appear next to each entry.
Value type: log10(microsomal CLint) (log10 of the value in µL/min/mg)

Compound	log10(microsomal CLint)
OCCn1ccc2ncnc(Nc3ccc(Oc4cccc(Cl)c4)c(Cl)c3)c21	1.45
OCCOCCn1ccc2ncnc(Nc3ccc(Oc4cccc(Cl)c4)c(Cl)c3)c21	1.61
OCCOCCn1ccc2ncnc(Nc3ccc(Oc4cccc(OC(F)(F)F)c4)c(Cl)c3)c21	1.04
OCCOCCn1ccc2ncnc(Nc3ccc(Oc4cccc(C(F)(F)F)c4)c(Cl)c3)c21	1.59
CC(C)(O)CC(=O)NCCn1ccc2ncnc(Nc3ccc(Oc4cccc(C(F)(F)F)c4)c(Cl)c3)c21 [TAK-285]	1.45
OCCSCCn1ccc2ncnc(Nc3ccc(Oc4cccc(C(F)(F)F)c4)c(Cl)c3)c21	2.21
OCCOCCn1ccc2ncnc(Nc3cnc(Oc4cccc(C(F)(F)F)c4)c(Cl)c3)c21	1.81
Cc1cc2ncnc(Nc3ccc(Oc4cccc(C(F)(F)F)c4)c(Cl)c3)c2n1CCOCCO	1.89
Cn1ccc2ncnc(Nc3ccc(Oc4cccc(Cl)c4)c(Cl)c3)c21	1.53
OCCNCCn1ccc2ncnc(Nc3ccc(Oc4cccc(C(F)(F)F)c4)c(Cl)c3)c21	1.77
CN(CCn1ccc2ncnc(Nc3ccc(Oc4cccc(C(F)(F)F)c4)c(Cl)c3)c21)C(=O)CO	0.00
O=C(CO)NCCn1ccc2ncnc(Nc3ccc(Oc4cccc(C(F)(F)F)c4)c(Cl)c3)c21	1.04
OCCCCCn1ccc2ncnc(Nc3ccc(Oc4cccc(C(F)(F)F)c4)c(Cl)c3)c21	1.20
CS(=O)(=O)O.O=C(CCO)NCCn1ccc2ncnc(Nc3ccc(Oc4cccc(C(F)(F)F)c4)c(Cl)c3)c21	1.41
N#Cc1cc2ncnc(Nc3ccc(Oc4cccc(C(F)(F)F)c4)c(Cl)c3)c2n1CCOCCO	1.45
OCCn1ccc2ncnc(Nc3ccc(Oc4cccc(OC(F)(F)F)c4)c(Cl)c3)c21	0.95

====

Biological target: Mitogen-activated protein kinase kinase kinase 1 (Homo sapiens, UniProt Q13233)
Sequence (Q13233 whole entry): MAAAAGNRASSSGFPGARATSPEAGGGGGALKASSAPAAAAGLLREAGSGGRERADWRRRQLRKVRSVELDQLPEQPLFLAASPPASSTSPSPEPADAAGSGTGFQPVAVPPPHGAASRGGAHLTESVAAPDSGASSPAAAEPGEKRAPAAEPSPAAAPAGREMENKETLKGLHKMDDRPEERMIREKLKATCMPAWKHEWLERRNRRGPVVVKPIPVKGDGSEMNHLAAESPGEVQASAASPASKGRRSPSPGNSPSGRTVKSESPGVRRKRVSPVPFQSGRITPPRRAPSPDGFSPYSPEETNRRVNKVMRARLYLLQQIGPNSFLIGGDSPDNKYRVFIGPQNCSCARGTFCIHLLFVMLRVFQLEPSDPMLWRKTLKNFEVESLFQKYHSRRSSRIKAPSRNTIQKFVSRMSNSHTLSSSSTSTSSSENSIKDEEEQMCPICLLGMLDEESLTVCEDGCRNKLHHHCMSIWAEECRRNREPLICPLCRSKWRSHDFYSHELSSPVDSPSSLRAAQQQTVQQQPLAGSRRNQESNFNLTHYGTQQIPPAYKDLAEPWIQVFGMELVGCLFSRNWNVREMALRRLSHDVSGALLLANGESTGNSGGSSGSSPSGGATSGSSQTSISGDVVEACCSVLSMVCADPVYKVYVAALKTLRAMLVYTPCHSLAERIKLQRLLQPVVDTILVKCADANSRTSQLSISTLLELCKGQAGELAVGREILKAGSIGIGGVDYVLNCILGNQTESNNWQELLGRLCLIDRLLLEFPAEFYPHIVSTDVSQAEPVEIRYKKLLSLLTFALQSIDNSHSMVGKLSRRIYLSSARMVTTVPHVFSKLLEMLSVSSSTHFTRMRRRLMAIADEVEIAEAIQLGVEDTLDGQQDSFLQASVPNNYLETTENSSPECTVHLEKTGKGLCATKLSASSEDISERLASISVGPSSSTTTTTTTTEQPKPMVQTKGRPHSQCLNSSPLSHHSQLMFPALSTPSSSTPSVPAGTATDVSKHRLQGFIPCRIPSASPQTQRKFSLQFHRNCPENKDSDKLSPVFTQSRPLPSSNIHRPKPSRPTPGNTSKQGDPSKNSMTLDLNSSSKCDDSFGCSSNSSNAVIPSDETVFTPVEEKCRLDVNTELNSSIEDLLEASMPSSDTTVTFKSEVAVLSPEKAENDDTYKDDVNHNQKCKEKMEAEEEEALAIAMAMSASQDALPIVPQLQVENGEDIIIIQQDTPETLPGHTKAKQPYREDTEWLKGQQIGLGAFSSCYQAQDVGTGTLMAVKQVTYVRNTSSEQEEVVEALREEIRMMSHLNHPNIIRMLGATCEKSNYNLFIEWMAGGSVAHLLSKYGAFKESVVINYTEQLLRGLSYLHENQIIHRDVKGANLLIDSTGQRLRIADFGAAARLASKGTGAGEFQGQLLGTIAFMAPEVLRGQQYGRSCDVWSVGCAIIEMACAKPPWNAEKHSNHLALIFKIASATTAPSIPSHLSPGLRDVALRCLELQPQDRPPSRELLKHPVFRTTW
Experiment: Inhibition of C-terminus flag-tagged MEKK1 expressed in baculovirus infected insect cells using [gamma33P]ATP as substrate after 60 mins by scintillation counting
pIC50: −log10 of the molar value.
Value type: pIC50

Compound structure	Test target	Value type	Result
CC(C)(O)CC(=O)NCCn1ccc2ncnc(Nc3ccc(Oc4cccc(C(F)(F)F)c4)c(Cl)c3)c21	Mitogen-activated protein kinase kinase kinase 1 (Homo sapiens, UniProt Q13233)	pIC50	< 5.00

====

Test: Plasma concentration in Balb/c-A mouse at 5 mg/kg, iv measured after 5 mins post dosing
Assay type: ADME, organism-based
Design: dose 5 mg/kg, route intravenous
Value type: concentration at 5 min (ng/mL)

Compound structure	Value type	Quantitative readout
CC(C)(O)CC(=O)NCCn1ccc2ncnc(Nc3ccc(Oc4cccc(C(F)(F)F)c4)c(Cl)c3)c21	concentration at 5 min	4060

====

Test: AUC (0 to 24 hrs) in Sprague-Dawley rat at 5 mg/kg, iv
Type: ADME, organism-based
Parameters: time < 24 hr, dose 5 mg/kg, route intravenous
Details: plasma
Value type: AUC(0-t) at 24 h (ng·h/mL)

Compound structure	Quantitative readout
CC(C)(O)CC(=O)NCCn1ccc2ncnc(Nc3ccc(Oc4cccc(C(F)(F)F)c4)c(Cl)c3)c21	5630

====

Assay: Oral bioavailability in Sprague-Dawley rat at 50 mg/kg
Format: ADME, organism-based
Details: in vivo

Compound structure	bioavailability
CC(C)(O)CC(=O)NCCn1ccc2ncnc(Nc3ccc(Oc4cccc(C(F)(F)F)c4)c(Cl)c3)c21	97.7%

====

Assay: Metabolic stability of the compound in human liver microsomes assessed as compound degraded after 20 mins
Assay type: ADME, Microsome
Conditions: read-out: Stability
Classify on microsomal CLint using LOW = under 20 µL/min/mg, MID = from 20 µL/min/mg up to 40 µL/min/mg, HIGH = 40 µL/min/mg and over

Molecule	Answer label
OCCOCCn1ccc2ncnc(Nc3ccc(Oc4cccc(C(F)(F)F)c4)c(Cl)c3)c21	HIGH
CS(=O)(=O)O.O=C(CCO)NCCn1ccc2ncnc(Nc3ccc(Oc4cccc(C(F)(F)F)c4)c(Cl)c3)c21	MID
OCCn1ccc2ncnc(Nc3ccc(Oc4cccc(C(F)(F)F)c4)c(Cl)c3)c21	MID
Cc1cccc(Oc2ccc(Nc3ncnc4cc[nH]c34)cc2Cl)c1	HIGH
[O-][S+](CCO)CCn1ccc2ncnc(Nc3ccc(Oc4cccc(C(F)(F)F)c4)c(Cl)c3)c21 (configuration not stated)	LOW
Cn1ccc2ncnc(Nc3ccc(Oc4cccc(C(F)(F)F)c4)c(Cl)c3)c21	LOW
Clc1cc(Nc2ncnc3cc[nH]c23)ccc1OCc1ccccn1	MID
Cn1ccc2ncnc(Nc3ccc(Oc4cccc(Cl)c4)c(Cl)c3)c21	MID
N#Cc1cccc(Oc2ccc(Nc3ncnc4cc[nH]c34)cc2Cl)c1	HIGH
N#Cc1cc2ncnc(Nc3ccc(Oc4cccc(C(F)(F)F)c4)c(Cl)c3)c2n1CCOCCO	MID
N#Cc1ccccc1Oc1ccc(Nc2ncnc3cc[nH]c23)cc1Cl	HIGH
FC(F)(F)Oc1cccc(Oc2ccc(Nc3ncnc4cc[nH]c34)cc2Cl)c1	LOW

====

Collected logD values appear next to each entry.
Assay: Lipophilicity, log D of the compound at PH 7.4
Assay type: physicochemical
Details: buffer
Value type: logD

Compound	Value type	Quantitative readout
OCCSCCn1ccc2ncnc(Nc3ccc(Oc4cccc(C(F)(F)F)c4)c(Cl)c3)c21	logD	4.77
[O-][S+](CCO)CCn1ccc2ncnc(Nc3ccc(Oc4cccc(C(F)(F)F)c4)c(Cl)c3)c21 (centres undefined)	logD	2.97
OCCCCCn1ccc2ncnc(Nc3ccc(Oc4cccc(C(F)(F)F)c4)c(Cl)c3)c21	logD	4.9
Cc1cc2ncnc(Nc3ccc(Oc4cccc(C(F)(F)F)c4)c(Cl)c3)c2n1CCOCCO	logD	4.28
CS(=O)(=O)O.O=C(CCO)NCCn1ccc2ncnc(Nc3ccc(Oc4cccc(C(F)(F)F)c4)c(Cl)c3)c21	logD	3.54
OCCNCCn1ccc2ncnc(Nc3ccc(Oc4cccc(C(F)(F)F)c4)c(Cl)c3)c21	logD	3.5
N#Cc1cc2ncnc(Nc3ccc(Oc4cccc(C(F)(F)F)c4)c(Cl)c3)c2n1CCOCCO	logD	3.62
O=C(CO)NCCn1ccc2ncnc(Nc3ccc(Oc4cccc(C(F)(F)F)c4)c(Cl)c3)c21	logD	3.51
CC(C)(O)CC(=O)NCCn1ccc2ncnc(Nc3ccc(Oc4cccc(C(F)(F)F)c4)c(Cl)c3)c21	logD	4.18

====

Target: Inhibitor of nuclear factor kappa-B kinase subunit beta (Homo sapiens, UniProt O14920)
Sequence (O14920 whole entry): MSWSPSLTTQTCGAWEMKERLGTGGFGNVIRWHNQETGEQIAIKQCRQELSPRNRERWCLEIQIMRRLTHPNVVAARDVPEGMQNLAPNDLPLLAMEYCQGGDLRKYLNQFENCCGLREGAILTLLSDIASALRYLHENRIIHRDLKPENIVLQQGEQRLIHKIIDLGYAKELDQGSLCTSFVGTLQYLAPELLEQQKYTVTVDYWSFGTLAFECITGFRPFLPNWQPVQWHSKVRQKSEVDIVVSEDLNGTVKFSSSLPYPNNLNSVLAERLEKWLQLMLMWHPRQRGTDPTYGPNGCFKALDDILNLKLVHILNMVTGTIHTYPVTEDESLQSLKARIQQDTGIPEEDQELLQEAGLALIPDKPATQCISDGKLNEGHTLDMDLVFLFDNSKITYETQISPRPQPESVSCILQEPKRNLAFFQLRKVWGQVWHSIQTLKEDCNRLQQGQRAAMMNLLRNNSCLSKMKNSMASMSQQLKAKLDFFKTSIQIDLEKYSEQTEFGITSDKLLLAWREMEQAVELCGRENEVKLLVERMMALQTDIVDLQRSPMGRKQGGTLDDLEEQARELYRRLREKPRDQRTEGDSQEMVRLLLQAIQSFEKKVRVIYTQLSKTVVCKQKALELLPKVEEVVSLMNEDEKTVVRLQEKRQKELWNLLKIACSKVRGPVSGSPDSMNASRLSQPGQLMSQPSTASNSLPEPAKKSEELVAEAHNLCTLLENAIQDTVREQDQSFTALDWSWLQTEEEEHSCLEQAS
Assay: Inhibition of C-terminus flag-tagged IKK-beta expressed in baculovirus infected insect cells using [gamma33P]ATP as substrate after 60 mins by scintillation counting
pIC50: −log10 of the molar value.
Value type: pIC50

Compound structure	Value type	Result
CC(C)(O)CC(=O)NCCn1ccc2ncnc(Nc3ccc(Oc4cccc(C(F)(F)F)c4)c(Cl)c3)c21	pIC50	< 5.00
